Source of measurements: PubChem BioAssay AID602405

- Test system: UDP-N-acetylbacillosamine N-acetyltransferase PglD (Campylobacter jejuni)
- Protocol description: C. jejuni PglD acetyltransferase inhibitors, primary screen, biochemical, DTNB colorimetric, single point (AID 602405)
- Experimental context: purified PglD enzyme, DTNB colorimetric CoA detection; at 12.5 µM; active compounds read high
Screen size: about 360,000 compounds; about 350 (0.097%) were called active. The entries come from a sample that favours actives as a whole.
Exercise: state measured inhibition for each of the molecules provided.
Unit % implied. Number only.

Dear colleague, please send me the reported inhibition for COc1ccc(NC(=O)N(C)C[C@H]2OCCCC[C@@H](C)Oc3ccc(NC(=O)NC4CCCCC4)cc3C(=O)N([C@@H](C)CO)C[C@H]2C)cc1 when you can.
4.17

Please supply the value of reported inhibition for the item CCC(=O)N1[C@@H](CO)[C@@H]2c3ccccc3N(C(=O)c3ccccc3F)C[C@@H]21
-0.466

Return inhibition for the following molecule: CCC(=O)N1C[C@@H](C)[C@H](OC)CN(C)C(=O)c2ccc(NC(=O)NC(C)C)cc2OC[C@H]1C
-4.33

// fetch inhibition given entry C[C@H](CO)N1C[C@H](C)[C@H](CN(C)S(=O)(=O)c2cn(C)cn2)OCCCC[C@H](C)Oc2ccc(N(C)C)cc2C1=O
-2.91

Specify reported inhibition for the molecule shown: C[C@H](CO)N1C[C@H](C)[C@H](CN(C)Cc2ccc(C(=O)Nc3ccccc3N)cc2)Oc2c(NC(=O)Nc3ccccc3)cccc2C1=O
1.92

Give me measured inhibition, please, for this molecule: O=C(NCC[C@@H]1CC[C@@H](NC(=O)Nc2cc(F)ccc2F)[C@H](CO)O1)Nc1ccc(Cl)cc1
0.614

Please supply the value of reported inhibition for the item CCCNC(=O)N1[C@H](C#N)[C@@H](c2ccc(C3=CCCC3)cc2)[C@H]1CO
10.3

Let me know recorded inhibition for O=C(C[C@@H]1CC[C@H]2[C@@H](COC[C@@H](O)CN2C(=O)Nc2ccc(Cl)cc2)O1)NC1Cc2ccccc2C1 , thanks.
2.05

Give me measured inhibition, please, for this molecule: COc1ccc(S(=O)(=O)Nc2ccc3c(c2)C(=O)N([C@H](C)CO)C[C@@H](C)[C@H](CN(C)S(=O)(=O)c2ccc(C)cc2)O3)cc1
4.85

Look up and report measured inhibition for this entry: Cc1ccc(S(=O)(=O)Nc2ccc3c(c2)C(=O)N([C@H](C)CO)C[C@H](C)[C@@H](CN(C)C(=O)NC(C)C)OCCCC[C@@H](C)O3)cc1
-2.85

Specify measured inhibition for O=C(NCCc1ccc(Cl)cc1)C1CCCN1C(=O)NCc1ccccc1 (stereo unspecified) .
1.86

Supply recorded inhibition for C=CC1=C(C(=O)O)N2C(=O)[C@@H](NC(=O)/C(=N\OCC(=O)O)c3csc(N)n3)[C@H]2SC1 here.
-2.51

Determine its reported inhibition: COc1ccc(S(=O)(=O)N[C@@H]2CC[C@H](CC(=O)N3CCc4ccccc4C3)O[C@H]2CO)cc1
-0.563

State its inhibition: O=C([C@H]1[C@H](CO)[C@H]2Cn3c(cccc3=O)[C@@H]1N2Cc1cocn1)N1CCCCC1
-0.522

In one line, give reported inhibition of the entry CCCOc1ccc(F)cc1-c1cc(C(=O)Nc2ccc(F)c(Cl)c2)[nH]n1 .
-24.9

Query inhibition for Cc1noc(C)c1S(=O)(=O)Nc1ccc2c(c1)C(=O)N([C@@H](C)CO)C[C@@H](C)[C@H](CN(C)Cc1ccc(-c3ccccc3)cc1)O2
-0.726

Provide one value: measured inhibition of Cc1noc(C)c1S(=O)(=O)N(C)C[C@H]1Oc2ccc(NC(=O)Cc3ccccc3)cc2CC(=O)N([C@@H](C)CO)C[C@H]1C
2.8

Please give measured inhibition of the following entry: C[C@@H]1CN([C@@H](C)CO)C(=O)c2cccc(NS(=O)(=O)c3ccc(Cl)cc3)c2O[C@@H]1CN(C)C(=O)Nc1ccccc1
0.684

For the molecule CCCN1C[C@@H](C)[C@@H](OC)CN(C)C(=O)c2ccc(NS(C)(=O)=O)cc2OC[C@@H]1C , give its measured inhibition value.
0.769

Give inhibition for COc1ccc(NC(=O)Nc2cccc3c2O[C@H](CN(C)S(=O)(=O)c2ccc(F)cc2)[C@H](C)CN([C@H](C)CO)C3=O)cc1
2.54

For the molecule CN1C(=O)c2cc(NC(=O)C3CCCCC3)ccc2OC[C@H]2O[C@@H](CC(=O)NC3CCCC3)CC[C@@H]21 , give its measured inhibition value.
-4.23

Retrieve inhibition measured for O=S1(=O)CC(NCc2ccccc2)C(Nc2ccc(Cl)cc2)C1 (stereo unspecified) and print it.
35.4

Dear colleague, please send me the reported inhibition for CC=Cc1ccc2n(c1=O)C[C@@H]1[C@@H](CO)[C@H](C(=O)N3CCCCC3)[C@H]2N1C(=O)C1CCC1 (mixture of isomers) when you can.
2.61

Complete the entry with inhibition for CSc1ccc(S(=O)(=O)NCc2ccc(Cl)cc2)cc1
26.5

Provide measured inhibition value, entry: CCCOc1ccc(F)cc1-c1cc(C(=O)NCc2ccc(F)cc2)[nH]n1
4.69

Please look at this molecule and report its inhibition: CO[C@@H]1CN(C)C(=O)c2cc(NC(=O)C3CCC3)ccc2OC[C@H](C)N(Cc2nccs2)C[C@H]1C
0.477

Annotate the molecule Cc1ccc(S(=O)(=O)NCC[C@H]2CC[C@H](NC(=O)c3ccccn3)[C@H](CO)O2)cc1 with its measured inhibition.
0.367

Consider the molecule CN(C)C(=O)c1cccc(-c2ccc3c(c2)[C@@H]2[C@@H](CCN2Cc2nccs2)[C@@H](CO)N3)c1 and give its recorded inhibition.
0.288

Determine from records and report inhibition for CO[C@@H]1CC[C@@H]2CCOc3ccc(C#N)cc3C(=O)N(C)C[C@@H](OC)[C@@H](C)C(=O)N(C)C[C@H]1O2
2.01

Please indicate inhibition recorded for C[C@@H]1CCCCO[C@H](CN(C)Cc2ccc(C(F)(F)F)cc2)[C@@H](C)CN([C@@H](C)CO)C(=O)c2cc(NC(=O)c3ccncc3)ccc2O1
3.05

Give inhibition for Cc1noc(C)c1NC(=O)N(C)C[C@@H]1Oc2ccc(NC(=O)Nc3ccc4c(c3)OCO4)cc2C(=O)N([C@H](C)CO)C[C@H]1C
-1.03
